SUBJECT OF TEST: T1, IL-2 receptor βγ complex on pan T cells (human, UniProt P14784 27-551; P31785 23-369)
T1 sequence (looked up) 1: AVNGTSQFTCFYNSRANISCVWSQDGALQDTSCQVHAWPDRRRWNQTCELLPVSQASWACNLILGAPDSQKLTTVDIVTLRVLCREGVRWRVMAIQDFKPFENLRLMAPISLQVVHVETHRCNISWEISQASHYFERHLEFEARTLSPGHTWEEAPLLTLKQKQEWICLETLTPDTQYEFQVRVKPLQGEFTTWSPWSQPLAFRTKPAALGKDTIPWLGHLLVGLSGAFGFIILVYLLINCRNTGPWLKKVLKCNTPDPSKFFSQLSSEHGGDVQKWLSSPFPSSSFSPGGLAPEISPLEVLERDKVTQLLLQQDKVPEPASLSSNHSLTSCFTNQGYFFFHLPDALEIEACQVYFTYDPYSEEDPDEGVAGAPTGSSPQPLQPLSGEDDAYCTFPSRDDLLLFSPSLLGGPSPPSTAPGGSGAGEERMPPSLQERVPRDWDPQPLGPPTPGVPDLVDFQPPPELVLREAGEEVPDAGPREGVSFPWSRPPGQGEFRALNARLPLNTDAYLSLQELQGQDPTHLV
T1 sequence (looked up) 2: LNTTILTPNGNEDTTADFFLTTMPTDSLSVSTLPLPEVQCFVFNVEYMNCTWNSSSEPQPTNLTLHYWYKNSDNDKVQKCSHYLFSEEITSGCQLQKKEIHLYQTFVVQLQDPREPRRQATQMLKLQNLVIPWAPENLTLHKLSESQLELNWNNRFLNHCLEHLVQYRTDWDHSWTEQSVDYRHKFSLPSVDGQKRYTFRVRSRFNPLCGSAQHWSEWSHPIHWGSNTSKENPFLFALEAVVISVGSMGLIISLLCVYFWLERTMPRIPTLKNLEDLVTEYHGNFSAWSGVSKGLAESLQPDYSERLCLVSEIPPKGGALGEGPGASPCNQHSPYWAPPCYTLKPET
PROTOCOL TEXT: cell-based or functional assay
Primed or numbered codes have the meaning given here. [ ]: non-standard residue; d: D form. Ygp″ = O-(PEG8-amino)-tyrosine (O-(8x polyethylene glycol-amino)-tyrosine); Yn3″ = O-(PEG9-azido)-tyrosine (O-(9x polyethylene glycol-azido)-tyrosine); Ygp = O-(8x polyethylene glycol-amino)-tyrosine; Yn3 = O-(9x polyethylene glycol-azido)-tyrosine; hSer = N[C@@H](CCO)C(=O)O; Nle = CCCC[C@H](N)C(=O)O
QUANTITY MEASURED: Average EC50, pSTAT5 assay in pan T cells, MMP2 cleaved molecule (nM)
Report the figure in nM without appending any unit label.

Q: Provide measured Average EC50, pSTAT5 assay in pan T cells, MMP2 cleaved molecule value, entry: CMP-122, MMP2 cleaved (ligand, ends and bridges not checked; also: Lys23 side chain attached via PEG9 to cleavable peptide, MMP2-cleaved, remnant stays attached, cut site not given here) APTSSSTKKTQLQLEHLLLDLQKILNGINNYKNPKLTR[Nle]L[hSer][Yn3″]KF[Ygp″][Nle]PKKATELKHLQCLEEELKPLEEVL[hSer]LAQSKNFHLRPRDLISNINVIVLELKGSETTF[hSer]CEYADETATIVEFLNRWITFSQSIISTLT
Ans: 3.55

Now consider a different binder.
Q: Provide measured Average EC50, pSTAT5 assay in pan T cells, MMP2 cleaved molecule value, entry: CMP-143, MMP2 cleaved (ligand, not fully specified (residue 23); ends and bridges not checked; also: MMP2-cut remnant of cleavable moiety on Lys23 side chain, not given here) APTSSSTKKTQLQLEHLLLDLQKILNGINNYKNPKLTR[Nle]L[hSer][Yn3]KF[Ygp][Nle]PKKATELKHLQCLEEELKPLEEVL[hSer]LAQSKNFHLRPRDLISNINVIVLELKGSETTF[hSer]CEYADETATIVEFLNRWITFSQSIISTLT
Ans: 1.99
